Source listed as patent US20180362616A1.

// pKi lookup, one value per entry
tested-on: T1, human cationic trypsin (human, UniProt P07477 24-247)
T1 construct: mature
assay: inhibition of cationic trypsin cleavage of Z-GPR-pNA; slow tight-binding fit
pKi: −log10 of the molar value.

| binder | pKi |
| --- | --- |
| APPI-WT (SEQ ID NO: 25), soluble, expressed in Pichia pastoris (other, Secreted from P. pastoris GS115, purified by nickel IMAC and gel filtration; also called WT APPI; not shown: N-terminal FLAG tag with the SnaBI/EcoRI-coded residues, and the C-terminal AvrII-coded residues plus His6) EVCSEQAETGPCRAMISRWYFDVTEGKCAPFFYGGCGGNRNNFDTEEYCMAVCGSAI | 11.20 |
| APPI-M17G/I18F/F34V (SEQ ID NO: 8), soluble (designed binder, also called APPI 3M; APPI^3M; not shown: AvrII site residues and C-terminal HIS6 tag) EVCSEQAETGPCRAGFSRWYFDVTEGKCAPFVYGGCGGNRNNFDTEEYCMAVCGSAI | 11.30 |
